- Procedure details: Quantitative High-Throughput drug screen in 47 multiple myeloma cell lines against the NCATS MIPE library collection: KMS11_JCRBsus cell viability assay (AID 1919873); also: nearly all actives have a fitted effect of over 50% in size
- Run conditions: KMS11 myeloma viability, CellTiter-Glo ATP luminescence, 48 h; series mostly up to 45.8 µM
Inconclusive results are not listed. Activity calls are given as the source filed them. Calls follow the shape of the dose curve; as a rule, active = well fitted cell-killing curve with a large enough effect; inconclusive = small, poorly fitted or top-dose-only effect, or effect the other way; inactive = no such curve, though single readings can be large or run the other way.
Result category, one only: Y (active), N (inactive)

Example entries begin here.
| Compound | Group label |
| --- | --- |
| CC(C)(O)Cn1c(NC(=O)c2ccc(-c3cn[nH]c3)s2)nc2cc(CN3CCOCC3)ccc21 | Y |
| C[C@@H]1[C@H](C)CC[C@]2(C(=O)O)CC[C@]3(C)C(=CC[C@@H]4[C@@]5(C)C[C@@H](O)[C@H](O)[C@@](C)(CO)[C@H]5CC[C@]43C)[C@@H]12 | N |
| CCc1cc(C(C)=NOCc2ccc(C3CCCCC3)c(C(F)(F)F)c2)ccc1CN1CC(C(=O)O)C1 | N |
| Cc1cc(C(=O)NOCCO)c(Nc2ccc(I)cc2F)n(C)c1=O | N |

Called result for CN[C@H](CC(C)C)C(=O)N[C@H]1C(=O)N[C@@H](CC(N)=O)C(=O)N[C@@H]2C(=O)N[C@H]3C(=O)N[C@H](C(=O)N[C@H](C(=O)O)c4cc(O)cc(O)c4-c4cc3ccc4O)[C@H](O)c3ccc(c(Cl)c3)Oc3cc2cc(c3O[C@@H]2O[C@H](CO)[C@@H](O)[C@H](O)[C@@H]2O[C@H]2C[C@](C)(N)[C@H](O)[C@H](C)O2)Oc2ccc(cc2Cl)[C@H]1O
N

Cool, now C=CC(=O)Nc1ccc2ncnc(Nc3ccc(OCc4cccc(F)c4)c(Cl)c3)c2c1
Y

Cool, now Nc1ncn([C@@H]2O[C@H](CO)[C@@H](O)[C@@H]2O)c(=O)n1
Y

Cool, now CCCNC(=O)[C@H]1O[C@H]1C(=O)N[C@H](C(=O)N1CCC[C@@H]1C(=O)OC)C(C)CC (stereo partly specified)
Y

Cool, now COC(=O)[C@H](CCCN=C(N)N)NS(=O)(=O)c1ccc(C)cc1
N

Cool, now NC(=O)c1ncn([C@@H]2O[C@H](CO)[C@@H](O)[C@@H]2O)c1O
N

Cool, now C=CCNC1=C2C[C@@H](C)C[C@H](OC)[C@@H](O)[C@@H](C)C=C(C)[C@H](OC(N)=O)[C@@H](OC)C=CC=C(C)C(=O)NC(=CC1=O)C2=O
Y

Cool, now COc1ccc(S(=O)(=O)Nc2cccnc2Nc2ccc(O)cc2)cc1
Y

Cool, now C=C(C)[C@@H]1CC[C@]2(C)CC[C@]3(C)[C@H](CC[C@@H]4[C@@]5(C)CC[C@H](O)C(C)(C)[C@H]5CC[C@]43C)[C@@H]12
N

The measured values listed here are drawn from PubChem BioAssay (NCATS).
